ASSAY_SUMMARY: self-splicing fitness, log relative to wild type (ln ratio); higher = more splicing; Tetrahymena group I intron in knt gene, E. coli kanamycin selection, DiMSum; sequences stand for … in CUCUCU…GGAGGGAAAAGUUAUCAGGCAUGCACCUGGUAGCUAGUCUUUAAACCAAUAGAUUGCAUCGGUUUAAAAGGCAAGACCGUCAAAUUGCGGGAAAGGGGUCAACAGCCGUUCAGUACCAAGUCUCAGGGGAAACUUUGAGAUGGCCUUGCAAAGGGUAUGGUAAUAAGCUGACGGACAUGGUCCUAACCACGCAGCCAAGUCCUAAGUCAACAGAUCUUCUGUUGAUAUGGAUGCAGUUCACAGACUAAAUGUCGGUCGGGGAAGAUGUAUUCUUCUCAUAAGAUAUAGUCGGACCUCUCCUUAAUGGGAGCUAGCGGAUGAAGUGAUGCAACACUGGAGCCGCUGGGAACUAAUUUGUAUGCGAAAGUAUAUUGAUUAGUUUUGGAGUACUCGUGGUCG;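 note: selection with 25 µg/mL kanamycin versus none on LB agar overnight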
CONDITION_NOTES: 37 °C
Rule: Criterion met for self-splicing fitness (ln) not less than -2, Criterion not met for anything less.

| SEQUENCE_CONTENT | ANSWER_LABEL |
| --- | --- |
| GUACAGCAAUAUUACGUAAA | Criterion met |
| UGCUAGCAAUAUUACGCGAA | Criterion met |
| AAUCAGCAAUAUUACGGGUC | Criterion met |
| UUACAGCAAUAUUACGGGUA | Criterion met |
| GAGUAGCAAUAUUACGUGAC | Criterion met |
| GUUAAGCAAUAUUACGCCCG | Criterion met |
| GCAGAGCAAUAUUACGGAGG | Criterion not met |
| GACAAGCAAUAUUACGAGCU | Criterion met |
| CUAGAGCAAUAUUACGGUUA | Criterion not met |
| UUAAAGCAAUAUUACGCCCG | Criterion met |
| GAGAAGCAAUAUUACGCCUG | Criterion met |
| CAUGAGCAAUAUUACGAAUU | Criterion not met |
| UUCAAGCAAUAUUACGUGCU | Criterion not met |
| AGCUAGCAAUAUUACGCCGG | Criterion met |
| CACAAGCAAUAUUACGCGCC | Criterion met |
| CAAUAGCAAUAUUACGGUAA | Criterion not met |

----------
ASSAY_SUMMARY: self-splicing fitness, log relative to wild type (ln ratio); higher = more splicing; Tetrahymena group I intron in knt gene, E. coli kanamycin selection, DiMSum; sequences stand for … in CUCUCU…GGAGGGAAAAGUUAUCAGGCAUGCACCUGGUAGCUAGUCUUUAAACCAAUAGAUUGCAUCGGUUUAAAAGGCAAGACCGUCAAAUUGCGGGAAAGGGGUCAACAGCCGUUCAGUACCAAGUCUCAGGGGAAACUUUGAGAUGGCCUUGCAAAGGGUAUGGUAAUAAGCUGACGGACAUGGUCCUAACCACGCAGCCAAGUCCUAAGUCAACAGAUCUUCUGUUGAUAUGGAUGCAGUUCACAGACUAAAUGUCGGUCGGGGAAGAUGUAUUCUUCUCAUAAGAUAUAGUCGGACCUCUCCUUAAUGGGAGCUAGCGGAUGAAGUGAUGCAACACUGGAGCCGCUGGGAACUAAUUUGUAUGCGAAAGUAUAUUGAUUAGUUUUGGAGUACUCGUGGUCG
CONDITION_NOTES: 37 °C

| SEQUENCE_CONTENT | self-splicing fitness (ln) |
| --- | --- |
| GACCAGCAAUAUUACGCAUG | -1.65 |
| ACUCAGCAAUAUUACGCGUC | -2.06 |
| AAGAAGCAAUAUUACGGUUC | -0.743 |
| ACCCAGCAAUAUUACGGUAA | -0.477 |
| AUUCAGCAAUAUUACGGGCG | -0.0814 |
| ACGUAGCAAUAUUACGCGUA | -1.74 |
| ACCAAGCAAUAUUACGAUAU | -2.17 |
| AUUAAGCAAUAUUACGAUCC | -0.106 |
| UAGGAGCAAUAUUACGUGAG | -1.55 |
| AUGUAGCAAUAUUACGUUCU | -0.469 |
| GUUAAGCAAUAUUACGUGGA | -2.31 |
| AUCUAGCAAUAUUACGCUCU | -0.244 |
| ACGCAGCAAUAUUACGAAGA | -1.43 |
| AGCUAGCAAUAUUACGGGGG | -1.64 |
| GCACAGCAAUAUUACGGUCG | -0.246 |
| GUCGAGCAAUAUUACGUGGA | -2.46 |
| UUAUAGCAAUAUUACGCGGU | -1.64 |
| AACUAGCAAUAUUACGCGUU | -2.48 |
| CAUUAGCAAUAUUACGAGAU | -2.9 |
| AAUUAGCAAUAUUACGGAUA | -0.926 |
| UACCAGCAAUAUUACGAAGG | -0.865 |
| GUGCAGCAAUAUUACGAACA | -1.25 |
| CUUAAGCAAUAUUACGUAAA | -2.88 |
| UAUUAGCAAUAUUACGUUGG | -0.685 |
| CCUGAGCAAUAUUACGCCUU | -2.01 |
| UUCUAGCAAUAUUACGCGCG | -1.05 |
| AAGAAGCAAUAUUACGCGAU | -2 |
| GGCCAGCAAUAUUACGUUAA | -2.62 |
| UUCCAGCAAUAUUACGAGUG | -0.52 |
| UCCGAGCAAUAUUACGUUGA | -0.915 |
| AAGCAGCAAUAUUACGCGCA | -0.501 |
| CAGAAGCAAUAUUACGGCUC | -0.31 |
| UUAAAGCAAUAUUACGCGAA | 0.0649 |
| UGAAAGCAAUAUUACGUCGU | -1.38 |
| AUACAGCAAUAUUACGGCUG | -2.6 |
| CGCAAGCAAUAUUACGUAAU | -2.14 |
| CGGAAGCAAUAUUACGGCAU | -1.55 |
| UACAAGCAAUAUUACGUCUU | -1.68 |
| UUUCAGCAAUAUUACGAUAU | -0.0425 |
| AGCCAGCAAUAUUACGUCAA | -2.53 |
| AACCAGCAAUAUUACGACCA | 0.122 |
| CUGCAGCAAUAUUACGAGAC | -1.31 |
| GGUAAGCAAUAUUACGUACG | -0.415 |
| UGUGAGCAAUAUUACGUCCU | -1.51 |
| CAAUAGCAAUAUUACGUACA | -1.82 |
| ACACAGCAAUAUUACGGAUG | -0.668 |
| GCCAAGCAAUAUUACGGCAG | -2.54 |
| CAUUAGCAAUAUUACGUCCA | -1.3 |
| AUCUAGCAAUAUUACGGCGC | -0.0721 |
| UGACAGCAAUAUUACGCCUU | -1.15 |
| GCUAAGCAAUAUUACGAGCU | -0.165 |
| UUGAAGCAAUAUUACGGUCG | 0.283 |
| AGGAAGCAAUAUUACGUGUC | -1.57 |
| ACCCAGCAAUAUUACGCACC | -0.52 |
| AGUAAGCAAUAUUACGGUAG | -3.44 |
| ACACAGCAAUAUUACGAGAC | -2.54 |
| UCCUAGCAAUAUUACGGGCG | -0.227 |
| CGCGAGCAAUAUUACGAAGU | -2.57 |
| UGCAAGCAAUAUUACGGAAG | -1.44 |
| CGCAAGCAAUAUUACGCUGC | -2.41 |
| UGAUAGCAAUAUUACGGACA | 0.61 |
| CCUUAGCAAUAUUACGCUUC | -1.83 |
| CCCGAGCAAUAUUACGUUCG | -2.55 |
| UGUCAGCAAUAUUACGAUAA | 0.438 |
| ACUCAGCAAUAUUACGAGAU | -1.81 |
| AGGUAGCAAUAUUACGUGGC | -2.74 |
| UACAAGCAAUAUUACGCGCG | 0.0647 |

----------
ASSAY_SUMMARY: self-splicing fitness, log relative to wild type (ln ratio); higher = more splicing; Tetrahymena group I intron in knt gene, E. coli kanamycin selection, DiMSum; sequences stand for … in CUCUCU…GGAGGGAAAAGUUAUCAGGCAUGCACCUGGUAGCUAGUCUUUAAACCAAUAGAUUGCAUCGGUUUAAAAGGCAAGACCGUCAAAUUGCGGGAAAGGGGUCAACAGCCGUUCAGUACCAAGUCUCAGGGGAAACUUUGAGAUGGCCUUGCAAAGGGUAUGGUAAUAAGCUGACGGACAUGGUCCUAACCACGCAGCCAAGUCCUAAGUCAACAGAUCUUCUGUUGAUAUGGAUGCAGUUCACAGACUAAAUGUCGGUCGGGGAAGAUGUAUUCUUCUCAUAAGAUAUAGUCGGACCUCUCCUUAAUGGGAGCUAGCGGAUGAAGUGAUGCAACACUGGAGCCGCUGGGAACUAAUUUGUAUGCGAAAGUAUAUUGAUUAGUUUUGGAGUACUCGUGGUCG
CONDITION_NOTES: 30 °C

| SEQUENCE_CONTENT | self-splicing fitness (ln) |
| --- | --- |
| CCCGAGCAAUAUUACGAACA | -2.93 |
| ACAAAGCAAUAUUACGAUAU | -2.1 |
| ACACAGCAAUAUUACGAUAU | -1.63 |
| CAUUAGCAAUAUUACGCUAU | -3.47 |
| AUCAAGCAAUAUUACGCCAA | -1.99 |
| AACAAGCAAUAUUACGUAAC | -3.29 |
| CCUGAGCAAUAUUACGAAGA | -1.76 |
| AUUAAGCAAUAUUACGUCGU | -1.43 |
| ACCGAGCAAUAUUACGGGGU | -3.7 |
| UGUCAGCAAUAUUACGGGUA | -0.294 |
| UUCGAGCAAUAUUACGAAAA | -2.97 |
| AGCUAGCAAUAUUACGCCGC | -2.36 |
| ACAGAGCAAUAUUACGCUUA | -2.01 |
| GUCCAGCAAUAUUACGUCAU | -0.201 |
| UAUGAGCAAUAUUACGCUGU | -3.79 |
| GCACAGCAAUAUUACGAAAC | -0.701 |

Data provenance: the supplement of paper PMC7877785
